Entries and their measured viability, T/C follow.
# Tested on: 653999-131-R-J2-PDC complex spheroids, growth inhibition
# measurement.notes: Anticancer human tumor 653999-131-R-J2-PDC patient-derived lung adenocarcinoma cell line growth inhibition [RAS]
# stated.conditions: second compound 0.003 µM; first compound 0.0949 µM; hits give low values

{"columns": ["molecule", "assayed.target", "viability, T/C, %"],
 "data": [
  ["CC1(C)CCC(Nc2ncc(C(F)(F)F)c(-c3c[nH]c4c(P(C)(C)=O)c(C#N)ccc34)n2)CN1 (centres undefined) + CCn1c(-c2cc(N3CCN(C)CC3)cnc2C(C)OC)c2c3cc(ccc31)-c1csc(n1)CC(NC(=O)C1CC1C)C(=O)N1CCCC(N1)C(=O)OCC(C)(C)C2", "653999-131-R-J2-PDC complex spheroids, growth inhibition", 41.1],
  ["CC1(C)CCC(Nc2ncc(C(F)(F)F)c(-c3c[nH]c4c(P(C)(C)=O)c(C#N)ccc34)n2)CN1 (centres undefined) + CCn1c(-c2cccnc2C(C)OC)c2c3cc(ccc31)N1CCOC(CC(NC(=O)C(C(C)C)N(C)C(=O)C3(F)CCN(C(=O)C#CC(C)(C)N(C)C)CC3)C(=O)N3CCCC(N3)C(=O)OCC(C)(C)C2)C1", "653999-131-R-J2-PDC complex spheroids, growth inhibition", 84.9],
  ["CCc1c2c(nc3ccc(O)cc13)-c1cc3c(c(=O)n1C2)COC(=O)[C@]3(O)CC + CCn1c(-c2cc(N3CCN(C)CC3)cnc2C(C)OC)c2c3cc(ccc31)-c1csc(n1)CC(NC(=O)C1CC1C)C(=O)N1CCCC(N1)C(=O)OCC(C)(C)C2", "653999-131-R-J2-PDC complex spheroids, growth inhibition", 14.7],
  ["CCc1c2c(nc3ccc(O)cc13)-c1cc3c(c(=O)n1C2)COC(=O)[C@]3(O)CC + CCn1c(-c2cccnc2C(C)OC)c2c3cc(ccc31)N1CCOC(CC(NC(=O)C(C(C)C)N(C)C(=O)C3(F)CCN(C(=O)C#CC(C)(C)N(C)C)CC3)C(=O)N3CCCC(N3)C(=O)OCC(C)(C)C2)C1", "653999-131-R-J2-PDC complex spheroids, growth inhibition", 28]
]}

* * *

# Test system: 653999-131-R-J2-PDC complex spheroids, growth inhibition
# measurement.notes: Anticancer human tumor 653999-131-R-J2-PDC cell line growth inhibition [RAS];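 note: spheroids exposed to the agents for seven days before the readout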
# stated.conditions: second compound 0.03 µM; first compound 10 µM; hits give low values
Entries and their measured viability, T/C follow.

{"columns": ["molecule", "viability, T/C, %"],
 "data": [
  ["Cc1nc(N2CCC3(CC2)COC(C)C3N)c(CO)nc1Sc1ccnc(N)c1Cl (centres undefined) + CCn1c(-c2cccnc2C(C)OC)c2c3cc(ccc31)N1CCOC(CC(NC(=O)C(C(C)C)N(C)C(=O)C3(F)CCN(C(=O)C#CC(C)(C)N(C)C)CC3)C(=O)N3CCCC(N3)C(=O)OCC(C)(C)C2)C1", 76.8],
  ["NC1c2ccccc2OC12CCN(c1cnc3c(N4CCCc5ncccc54)n[nH]c3n1)CC2 (centres undefined) + CCn1c(-c2cc(N3CCN(C)CC3)cnc2C(C)OC)c2c3cc(ccc31)-c1csc(n1)CC(NC(=O)C1CC1C)C(=O)N1CCCC(N1)C(=O)OCC(C)(C)C2", 11.1],
  ["NC1c2ccccc2OC12CCN(c1cnc3c(N4CCCc5ncccc54)n[nH]c3n1)CC2 (centres undefined) + CCn1c(-c2cccnc2C(C)OC)c2c3cc(ccc31)N1CCOC(CC(NC(=O)C(C(C)C)N(C)C(=O)C3(F)CCN(C(=O)C#CC(C)(C)N(C)C)CC3)C(=O)N3CCCC(N3)C(=O)OCC(C)(C)C2)C1", 67.7],
  ["CC1(O)CCCC1n1c(=O)c(C(F)F)cc2cnc(NC3CCN(S(C)(=O)=O)CC3)nc21 (centres undefined) + CCn1c(-c2cc(N3CCN(C)CC3)cnc2C(C)OC)c2c3cc(ccc31)-c1csc(n1)CC(NC(=O)C1CC1C)C(=O)N1CCCC(N1)C(=O)OCC(C)(C)C2", 20]
]}

* * *

# System: 653999-131-R-J2-PDC complex spheroids, growth inhibition
# measurement.notes: Anticancer human tumor 653999-131-R-J2-PDC cell line growth inhibition [RAS];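 note: spheroids exposed to the agents for seven days before the readout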
# stated.conditions: second compound 3.16 µM; first compound 0.316 µM; hits give low values
metric: viability, T/C (%)

{"columns": ["compound", "metric", "numeric.readout"],
 "data": [
  ["NC1c2ccccc2OC12CCN(c1cnc3c(N4CCCc5ncccc54)n[nH]c3n1)CC2 (stereo not given) + C#Cc1c(F)ccc2cc(O)cc(-c3ncc4c(N5CC6CCC(C5)N6)nc(OCC56CCCN5CC(F)C6)nc4c3F)c12", "viability, T/C", 16.9],
  ["Nc1ccn(C2OC(CO)C(O)C2(F)F)c(=O)n1 (stereo not given) + C#Cc1c(F)ccc2cc(O)cc(-c3ncc4c(N5CC6CCC(C5)N6)nc(OCC56CCCN5CC(F)C6)nc4c3F)c12", "viability, T/C", 14.6],
  ["CC1(O)CCCC1n1c(=O)c(C(F)F)cc2cnc(NC3CCN(S(C)(=O)=O)CC3)nc21 (stereo not given) + C#Cc1c(F)ccc2cc(O)cc(-c3ncc4c(N5CC6CCC(C5)N6)nc(OCC56CCCN5CC(F)C6)nc4c3F)c12", "viability, T/C", 21.6],
  ["CC(C)NCC(C(=O)N1CCN(c2ncnc3c2C(C)CC3O)CC1)c1ccc(Cl)cc1 (stereo not given) + C#Cc1c(F)ccc2cc(O)cc(-c3ncc4c(N5CC6CCC(C5)N6)nc(OCC56CCCN5CC(F)C6)nc4c3F)c12", "viability, T/C", 27.9],
  ["C=CC(=O)Nc1cc(Nc2nccc(-c3cn(C)c4ccccc34)n2)c(OC)cc1N(C)CCN(C)C + C#Cc1c(F)ccc2cc(O)cc(-c3ncc4c(N5CC6CCC(C5)N6)nc(OCC56CCCN5CC(F)C6)nc4c3F)c12", "viability, T/C", 22.8],
  ["Cc1nc(N2CCC3(CC2)COC(C)C3N)c(CO)nc1Sc1ccnc(N)c1Cl (stereo not given) + C#Cc1c(F)ccc2cc(O)cc(-c3ncc4c(N5CC6CCC(C5)N6)nc(OCC56CCCN5CC(F)C6)nc4c3F)c12", "viability, T/C", 32.2],
  ["CCC(CC)c1cc(NC2CCC(N)C2)n2nccc2n1 (stereo not given) + C#Cc1c(F)ccc2cc(O)cc(-c3ncc4c(N5CC6CCC(C5)N6)nc(OCC56CCCN5CC(F)C6)nc4c3F)c12", "viability, T/C", 49.3],
  ["O=C(c1ccc(F)c(F)c1Nc1ccc(I)cc1F)N1CC(O)([C@@H]2CCCCN2)C1 + C#Cc1c(F)ccc2cc(O)cc(-c3ncc4c(N5CC6CCC(C5)N6)nc(OCC56CCCN5CC(F)C6)nc4c3F)c12", "viability, T/C", 12.8],
  ["CC(Nc1ccc2c(c1)OCCn1cc(N3C(=O)OCC3C(F)F)nc1-2)C(N)=O (stereo not given) + C#Cc1c(F)ccc2cc(O)cc(-c3ncc4c(N5CC6CCC(C5)N6)nc(OCC56CCCN5CC(F)C6)nc4c3F)c12", "viability, T/C", 22.9],
  ["C[C@@H](NC(=O)c1ncnc(N)c1Cl)c1ncc(C(=O)Nc2cc(C(F)(F)F)c(Cl)cn2)s1 + C#Cc1c(F)ccc2cc(O)cc(-c3ncc4c(N5CC6CCC(C5)N6)nc(OCC56CCCN5CC(F)C6)nc4c3F)c12", "viability, T/C", 37]
]}

* * *

Entries and their measured viability, T/C follow.
# Test system: 653999-131-R-J2-PDC complex spheroids, growth inhibition
# measurement.notes: Anticancer human tumor 653999-131-R-J2-PDC cell line growth inhibition [RAS];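 note: spheroids exposed to the agents for seven days before the readout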
# stated.conditions: second compound 0.0316 µM; first compound 0.03 µM; hits give low values
metric: viability, T/C (%)

{"columns": ["compound", "numeric.readout"],
 "data": [
  ["CCc1c2c(nc3ccc(O)cc13)-c1cc3c(c(=O)n1C2)COC(=O)[C@]3(O)CC + C#Cc1c(F)ccc2cc(O)cc(-c3ncc4c(N5CC6CCC(C5)N6)nc(OCC56CCCN5CC(F)C6)nc4c3F)c12", 30.7],
  ["CC1(C)CCC(Nc2ncc(C(F)(F)F)c(-c3c[nH]c4c(P(C)(C)=O)c(C#N)ccc34)n2)CN1 (centres undefined) + C#Cc1c(F)ccc2cc(O)cc(-c3ncc4c(N5CC6CCC(C5)N6)nc(OCC56CCCN5CC(F)C6)nc4c3F)c12", 61.5],
  ["CC1(C)CCC(Nc2ncc(C(F)(F)F)c(-c3c[nH]c4c(P(C)(C)=O)c(C#N)ccc34)n2)CN1 (centres undefined) + C=CC(=O)N1CCN(c2nc(OCC3CCCN3C)nc3c(F)c(-c4nc(N)cc(C)c4C(F)(F)F)c(Cl)cc23)C(C)C1", 64.2],
  ["CCc1c2c(nc3ccc(O)cc13)-c1cc3c(c(=O)n1C2)COC(=O)[C@]3(O)CC + C=CC(=O)N1CCN(c2nc(OCC3CCCN3C)nc3c(F)c(-c4nc(N)cc(C)c4C(F)(F)F)c(Cl)cc23)C(C)C1", 30.4]
]}
